Form field: folding stability dG (one value per entry).
B1: HHH_rd2_0155 (parent)
chain: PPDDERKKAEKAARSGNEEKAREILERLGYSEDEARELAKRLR

Variants of: B1
EXPERIMENT: folding stability dG (cDNA display proteolysis); higher = more stable
CONDITION NOTES: PBS, room temperature
Write down the numeric answer in kcal/mol and omit the unit.

PPDDERKKAEKLARSGNEEKAREILERLGYSEDEARELAKRLR [A12L]: 2.38

Exercise: Field request: folding stability dG | item: PPDDERKKAEKAAASGNEEKAREILERLGYSEDEARELAKRLR [R14A]
Key: 1.78

Exercise: Also need PPDDERKKAEKAARSGNEEKAREILERLGYSEDEAMELAKRLR [R36M] , thanks.
Key: 1.57

Exercise: Also need PPDDERKSAEKAARSGNEEKAREILERLGYSEDEARELAKRLR [K8S] , thanks.
Key: 1.84

Exercise: Also need PPDDERKKAEKAARSGNEEKAREQLERLGYSEDEARELAKRLR [I24Q] , thanks.
Key: 0.718

Exercise: Also need PPDDERKKAEKAARSGNEEKAREILERLGYSEAEARELAKRLR [D33A] , thanks.
Key: 2.25

Exercise: Also need PPDDERKKAEKAARSGNEEKAREILERLGYSEDEARELAKRAR [L42A] , thanks.
Key: 1.2

Exercise: Also need PPDDERKKAEAAARSGNEEKAREILERLGYSEDEARELAKRLR [K11A] , thanks.
Key: 2.43

Exercise: Also need PPDDERKKAEKAARSPNEEKAREILERLGYSEDEARELAKRLR [G16P] , thanks.
Key: 0.825

Exercise: Also need PPDDERKKAEKAARSGNEEKAREILERLGYSEDEAAELAKRLR [R36A] , thanks.
Key: 1.56

Exercise: Also need PPDDERKKAEKAAESGNEEKAREILERLGYSEDEARELAKRLR [R14E] , thanks.
Key: 1.32

Hello, the source for this data is the MegaScale stability set (Tsuboyama et al. 2023), in case you need it.
